max response reference
- STUDY_SYSTEM: Nuclear receptor subfamily 1 group I member 2 (Rattus norvegicus)
- ASSAY_EXPLANATION: qHTS assay for small molecule activators of the rat pregnane X receptor (rPXR) signaling pathway (AID 651751); also: 0% is about no effect
- EXPERIMENTAL_CONTEXT: rPXR reporter cells, luciferase (One-Glo), 24 h
METRIC: max response (%)

- COMPOUND: "CC(O)CN(CCN(CC(C)O)CC(C)O)CC(C)O (configuration not stated)"
  METRIC: "max response"
  NUMERIC_VALUE: -2.51
- COMPOUND: "CCCc1c(OCCCCc2nn[nH]n2)ccc(C(C)=O)c1O"
  METRIC: "max response"
  NUMERIC_VALUE: -2.11
- COMPOUND: "CC(O)COc1ccccc1 (configuration not stated)"
  METRIC: "max response"
  NUMERIC_VALUE: 0.833
- COMPOUND: "O=S(=O)(O)NC1CCCCC1"
  METRIC: "max response"
  NUMERIC_VALUE: 1.16
- COMPOUND: "Nc1ccc(S(=O)(=O)Nc2nccs2)cc1"
  METRIC: "max response"
  NUMERIC_VALUE: -1.7
- COMPOUND: "Oc1cccc(O)c1"
  METRIC: "max response"
  NUMERIC_VALUE: 4.18
- COMPOUND: "Cc1cc(CC(=O)O)n(C)c1C(=O)c1ccc(Cl)cc1"
  METRIC: "max response"
  NUMERIC_VALUE: -6.77

---

- System: WaGa
- ASSAY_EXPLANATION: qHTS assay to identify novel small-molecules to repurpose for Merkel cell carcinoma treatment (AID 1296009); also: nearly all actives have a fitted effect of over 60% in size
- EXPERIMENTAL_CONTEXT: MCC and control cell lines, CellTiter-Glo viability, 72 h; series mostly up to 46 µM
Records with an inconclusive call do not appear. Activity calls are given as the source filed them. Calls come from the whole dose curve; as a rule, active = well fitted inhibition curve with a large enough effect; inconclusive = small, poorly fitted or top-dose-only effect; inactive = flat fitted curve, though single readings scatter.
Outcomes: active, inactive

- COMPOUND: "CCCc1c(OCCCCc2nn[nH]n2)ccc(C(C)=O)c1O"
  STUDY_SYSTEM: "WaGa"
  LABEL_CLASS: "inactive"
- COMPOUND: "[Cl][In]([Cl])[Cl]"
  STUDY_SYSTEM: "WaGa"
  LABEL_CLASS: "inactive"
- COMPOUND: "c1ccc2c(CC3=NCCN3)cccc2c1"
  STUDY_SYSTEM: "WaGa"
  LABEL_CLASS: "inactive"
- COMPOUND: "CCCCC(CC)COC(=O)c1ccccc1O (centres undefined)"
  STUDY_SYSTEM: "WaGa"
  LABEL_CLASS: "inactive"
- COMPOUND: "CCOC(=O)c1ccc(O)cc1"
  STUDY_SYSTEM: "WaGa"
  LABEL_CLASS: "inactive"
- COMPOUND: "C[C@H](N)[C@H](O)c1cccc(O)c1"
  STUDY_SYSTEM: "WaGa"
  LABEL_CLASS: "inactive"
- COMPOUND: "C[C@]12CC[C@@H]3c4ccc(O)cc4CC[C@H]3[C@@H]1CCC2=O"
  STUDY_SYSTEM: "WaGa"
  LABEL_CLASS: "inactive"
- COMPOUND: "O=S(=O)(O)c1cc(I)c(O)c2ncccc12"
  STUDY_SYSTEM: "WaGa"
  LABEL_CLASS: "inactive"
- COMPOUND: "CC(CN(C)C)CN1c2ccccc2CCc2ccccc21 (centres undefined)"
  STUDY_SYSTEM: "WaGa"
  LABEL_CLASS: "inactive"
- COMPOUND: "OC[C@H]1O[C@@H](O[C@@H]2[C@@H](CO)O[C@](O)(CO)[C@H]2O)[C@H](O)[C@@H](O)[C@H]1O"
  STUDY_SYSTEM: "WaGa"
  LABEL_CLASS: "inactive"
- COMPOUND: "CN(C)CCN(Cc1ccccc1)c1ccccn1"
  STUDY_SYSTEM: "WaGa"
  LABEL_CLASS: "inactive"
- COMPOUND: "CC1CC(OC(=O)C(O)c2ccccc2)CC(C)(C)N1C (centres undefined)"
  STUDY_SYSTEM: "WaGa"
  LABEL_CLASS: "inactive"
- COMPOUND: "O=C(O)c1ccccc1-c1ccc(C(F)(F)F)cc1"
  STUDY_SYSTEM: "WaGa"
  LABEL_CLASS: "inactive"
- COMPOUND: "O=C(O)CN1C(=O)c2cccc3cccc(c23)C1=O"
  STUDY_SYSTEM: "WaGa"
  LABEL_CLASS: "inactive"
- COMPOUND: "Cc1cc(C(C#N)c2ccc(Cl)cc2)c(Cl)cc1NC(=O)c1cc(I)cc(I)c1O (centres undefined)"
  STUDY_SYSTEM: "WaGa"
  LABEL_CLASS: "active"
- COMPOUND: "C[C@@H]1CN(c2c(F)c(F)c3c(=O)c(C(=O)O)cn(C4CC4)c3c2F)C[C@H](C)N1"
  STUDY_SYSTEM: "WaGa"
  LABEL_CLASS: "inactive"
- COMPOUND: "CCC(=O)Nc1ccc(O)cc1"
  STUDY_SYSTEM: "WaGa"
  LABEL_CLASS: "inactive"
- COMPOUND: "CC[C@@]1(c2ccccc2)NC(=O)N(C)C1=O"
  STUDY_SYSTEM: "WaGa"
  LABEL_CLASS: "inactive"
- COMPOUND: "Cn1c(=O)c2c(ncn2CC2OCCO2)n(C)c1=O"
  STUDY_SYSTEM: "WaGa"
  LABEL_CLASS: "inactive"
- COMPOUND: "O=C(O)c1ccccc1O"
  STUDY_SYSTEM: "WaGa"
  LABEL_CLASS: "inactive"
- COMPOUND: "O=c1cc(CO)occ1O"
  STUDY_SYSTEM: "WaGa"
  LABEL_CLASS: "inactive"
- COMPOUND: "CCOC(=O)[C@H](CCc1ccccc1)N[C@@H](C)C(=O)N1C(=O)N(C)C[C@H]1C(=O)O"
  STUDY_SYSTEM: "WaGa"
  LABEL_CLASS: "inactive"
- COMPOUND: "COc1cc2[nH]c(=O)[nH]c(=O)c2cc1OC"
  STUDY_SYSTEM: "WaGa"
  LABEL_CLASS: "inactive"
- COMPOUND: "CCC(=O)c1ccc(O)cc1"
  STUDY_SYSTEM: "WaGa"
  LABEL_CLASS: "inactive"
- COMPOUND: "C[C@@H](O)[C@H](N)C(=O)O"
  STUDY_SYSTEM: "WaGa"
  LABEL_CLASS: "inactive"
- COMPOUND: "CCN(CC)C(=O)Nc1ccc(OCC(O)CNC(C)(C)C)c(C(C)=O)c1 (centres undefined)"
  STUDY_SYSTEM: "WaGa"
  LABEL_CLASS: "inactive"
- COMPOUND: "CC(C)(C(=O)O)c1ccc(C(O)CCCN2CCC(C(O)(c3ccccc3)c3ccccc3)CC2)cc1 (centres undefined)"
  STUDY_SYSTEM: "WaGa"
  LABEL_CLASS: "inactive"
- COMPOUND: "C[C@]12CC[C@@H]3c4ccc(O)cc4CC[C@H]3[C@@H]1CC[C@@H]2OC(=O)CCC1CCCC1"
  STUDY_SYSTEM: "WaGa"
  LABEL_CLASS: "inactive"
- COMPOUND: "O=C(CCCN1CCN(c2ccccn2)CC1)c1ccc(F)cc1"
  STUDY_SYSTEM: "WaGa"
  LABEL_CLASS: "inactive"
- COMPOUND: "C#CCN(C)Cc1ccccc1"
  STUDY_SYSTEM: "WaGa"
  LABEL_CLASS: "inactive"
- COMPOUND: "Cc1ccc(C(C)C)cc2c(C)ccc1-2"
  STUDY_SYSTEM: "WaGa"
  LABEL_CLASS: "inactive"
- COMPOUND: "CC(C)C(=O)c1c(C(C)C)nn2ccccc12"
  STUDY_SYSTEM: "WaGa"
  LABEL_CLASS: "inactive"
- COMPOUND: "CCCCN1CCCC[C@H]1C(=O)Nc1c(C)cccc1C"
  STUDY_SYSTEM: "WaGa"
  LABEL_CLASS: "inactive"
- COMPOUND: "CC(O)COc1ccccc1 (centres undefined)"
  STUDY_SYSTEM: "WaGa"
  LABEL_CLASS: "inactive"
- COMPOUND: "CC1(C)OC(=O)NC1=O"
  STUDY_SYSTEM: "WaGa"
  LABEL_CLASS: "inactive"
- COMPOUND: "Cc1cc(O)cc2c1O[C@](C)(CCC[C@H](C)CCC[C@H](C)CCCC(C)C)CC2"
  STUDY_SYSTEM: "WaGa"
  LABEL_CLASS: "inactive"
- COMPOUND: "CO/N=C(\\C(=O)N[C@@H]1C(=O)N2C(C(=O)O)=C(CSc3nc(=O)c(O)nn3C)CS[C@H]12)c1csc(N)n1"
  STUDY_SYSTEM: "WaGa"
  LABEL_CLASS: "inactive"
- COMPOUND: "CC(C)(C)C(=O)C(Oc1ccc(Cl)cc1)n1ccnc1 (centres undefined)"
  STUDY_SYSTEM: "WaGa"
  LABEL_CLASS: "inactive"
- COMPOUND: "NS(=O)(=O)c1cc2c(cc1Cl)NC(CSCc1ccccc1)=NS2(=O)=O"
  STUDY_SYSTEM: "WaGa"
  LABEL_CLASS: "inactive"
- COMPOUND: "C[C@]12C[C@H](O)[C@H]3[C@@H](CCC4=CC(=O)CC[C@@]43C)[C@@H]1CC[C@@H]2C(=O)CO"
  STUDY_SYSTEM: "WaGa"
  LABEL_CLASS: "inactive"
- COMPOUND: "Cc1ncc(COP(=O)(O)O)c(C=O)c1O"
  STUDY_SYSTEM: "WaGa"
  LABEL_CLASS: "inactive"
- COMPOUND: "NS(=O)(=O)c1cc2c(cc1C(F)(F)F)NC(Cc1ccccc1)NS2(=O)=O (centres undefined)"
  STUDY_SYSTEM: "WaGa"
  LABEL_CLASS: "inactive"
- COMPOUND: "CCOc1nc2cccc(C(=O)O)c2n1Cc1ccc(-c2ccccc2-c2nn[nH]n2)cc1"
  STUDY_SYSTEM: "WaGa"
  LABEL_CLASS: "inactive"
- COMPOUND: "NC(=O)NNc1ccccc1"
  STUDY_SYSTEM: "WaGa"
  LABEL_CLASS: "inactive"
- COMPOUND: "OCC(O)CN1CCN(c2ccccc2)CC1 (centres undefined)"
  STUDY_SYSTEM: "WaGa"
  LABEL_CLASS: "inactive"
- COMPOUND: "NCCNCCNCCN"
  STUDY_SYSTEM: "WaGa"
  LABEL_CLASS: "inactive"
- COMPOUND: "COc1cc(C(=O)N2CCOCC2)cc(OC)c1OC"
  STUDY_SYSTEM: "WaGa"
  LABEL_CLASS: "inactive"
- COMPOUND: "CCCCCCCCCCCCOS(=O)(=O)O"
  STUDY_SYSTEM: "WaGa"
  LABEL_CLASS: "inactive"
- COMPOUND: "C=CCn1c(=O)n([C@@H]2O[C@H](CO)[C@@H](O)[C@H]2O)c2nc(N)[nH]c(=O)c21"
  STUDY_SYSTEM: "WaGa"
  LABEL_CLASS: "inactive"
